readout.kind: melting point

// solved cases for melting point follow
{"molecule": "Cc1ccccc1-c1ccc(C(=O)Nc2ccc3cc(CN4CCCC4)cnc3c2C)cc1", "readout.kind": "melting point", "result": "150 to 151 °C"}
{"molecule": "CC(=O)c1ccc(Nc2cccc(Br)c2)c([N+](=O)[O-])c1", "readout.kind": "melting point", "result": "142 to 144 °C"}
{"molecule": "NS(=O)(=O)c1cc2c(cc1Cl)NC(c1ccccc1)NS2(=O)=O (stereo not given)", "readout.kind": "melting point", "result": "235 to 238 °C"}
{"molecule": "OC(COc1ccccc1-c1nc2ccccc2s1)CN1CCN(C(c2ccccc2)c2ccccc2)CC1 (stereo not given)", "readout.kind": "melting point", "result": "152 to 155 °C"}
{"molecule": "Cc1cc(SC2=C(O)CC(CCc3ccco3)(C(C)C)OC2=O)c(C(C)(C)C)cc1CO (stereo not given)", "readout.kind": "melting point", "result": "64 to 110 °C"}

Query :: Value lookup for melting point; key = c1ccc(-c2nnc3ccc(N4CCOCC4)nn23)cc1
Result :: 266 to 268 °C

Query :: Value lookup for melting point; key = Nc1ncnc2c1c(Cl)cn2COCCO
Result :: 149 to 150 °C

Query :: Value lookup for melting point; key = Cc1ccc(-c2ccc3c(c2)C=C(C(=O)Nc2ccc(CN(C)C4CCSCC4)cc2)CO3)cc1
Result :: 169 to 171 °C

====

melting point: recorded values

// solved cases for melting point follow
{"molecule": "C=CC(C)(C)C(=O)C(Oc1ccc(Cl)cc1)n1cnnc1 (stereo not given)", "result": "124 to 126 °C"}
{"molecule": "Nc1cc(C(=O)O)ccc1-c1nnc(-c2ccc(C(F)(F)F)cc2)o1", "result": "> 300 °C"}
{"molecule": "C=C(C(=O)O)c1ccc(Cl)cc1", "result": "110 °C"}
{"molecule": "CS(=O)(=O)c1ccc(Oc2ccc(C(=O)c3ccccc3)cc2)nc1", "result": "130 to 132 °C"}

Continue with the next molecule.
Query :: Value lookup for melting point; key = Cc1cc(-c2nn(C(C)c3oc4ccccc4c(=O)c3-c3cccc(F)c3)c3ncnc(N)c23)ccn1 (stereo not given)
Result :: 266 to 268 °C

====

readout.kind: melting point

// solved cases for melting point follow
{"compound": "O=CN1CC2CCCc3c(C(=O)CCCl)ccc1c32 (centres undefined)", "melting point": "82 to 85 °C"}
{"compound": "CCOc1ccc(C(=O)N(C)C)c2c1C(=O)N(Cn1nnn(-c3ccccc3)c1=S)S2(=O)=O", "melting point": "172 to 173 °C"}

Query :: Value lookup for melting point; key = C#CC1(O)CCC2C3=C(CCC21C)c1ccc(OC)cc1CC3 (centres undefined)
Result :: 133 to 137 °C

====

melting point: recorded values

Query :: Value lookup for melting point; key = CCOC(=O)C1(Sc2ccccc2)Cc2ccc(N(C)C)cc2NC1=O (stereo not given)
Result :: 134 to 139 °C

Query :: Value lookup for melting point; key = Nc1ccc(CCC(=O)c2ccc(F)cc2)cc1
Result :: 54 to 55 °C

Query :: Value lookup for melting point; key = O=[N+]([O-])c1cc2ccc(C(Cl)(Cl)Cl)nc2c2nc(C(Cl)(Cl)Cl)ccc12
Result :: 228 to 231 °C

Query :: Value lookup for melting point; key = Cc1ccc(C(=O)c2cc(-c3ccccc3)c(N3CCOCC3)s2)cc1
Result :: 198 °C

Query :: Value lookup for melting point; key = C/C(=C\C=C\Cn1oc(=O)[nH]c1=O)c1cccc(OCc2nc(-c3ccccc3)oc2C)c1
Result :: 117 to 118 °C
